- target-or-system: AgSla1-D1-D2
- test-details: SPOT peptide array binding signal intensity (averaged, normalized) (arbitrary units (background-subtracted, floor 0; scale differs between SH3 domains)); higher = stronger binding of the SH3 domain to the peptide
Reported SPOT peptide array binding signal intensity values are given for each entry in this list.
property: SPOT peptide array binding signal intensity

binder: SLSRRRFSLPSMPNV
op: =
recorded-number: 60

binder: RSKRLFPVRPMATAH
op: =
recorded-number: 469

binder: IHTRRPSSTSQYLIR
op: =
recorded-number: 44

binder: PSTMDFPKLPSFQNS
op: ≤
recorded-number: 0

binder: NNFYRPLLRSVLVLL
op: =
recorded-number: 1

binder: TKHKAPPPPPPTAET
op: =
recorded-number: 3

binder: YSRKKLPVVLSKMTL
op: =
recorded-number: 57
